Values compiled from ChEMBL document CHEMBL3988442.

Target Entity: Ubiquitin-activating enzyme e1, putative (Leishmania donovani (strain BPK282A1)) (UniProt E9BSI1)
Sequence (E9BSI1 as listed by the source): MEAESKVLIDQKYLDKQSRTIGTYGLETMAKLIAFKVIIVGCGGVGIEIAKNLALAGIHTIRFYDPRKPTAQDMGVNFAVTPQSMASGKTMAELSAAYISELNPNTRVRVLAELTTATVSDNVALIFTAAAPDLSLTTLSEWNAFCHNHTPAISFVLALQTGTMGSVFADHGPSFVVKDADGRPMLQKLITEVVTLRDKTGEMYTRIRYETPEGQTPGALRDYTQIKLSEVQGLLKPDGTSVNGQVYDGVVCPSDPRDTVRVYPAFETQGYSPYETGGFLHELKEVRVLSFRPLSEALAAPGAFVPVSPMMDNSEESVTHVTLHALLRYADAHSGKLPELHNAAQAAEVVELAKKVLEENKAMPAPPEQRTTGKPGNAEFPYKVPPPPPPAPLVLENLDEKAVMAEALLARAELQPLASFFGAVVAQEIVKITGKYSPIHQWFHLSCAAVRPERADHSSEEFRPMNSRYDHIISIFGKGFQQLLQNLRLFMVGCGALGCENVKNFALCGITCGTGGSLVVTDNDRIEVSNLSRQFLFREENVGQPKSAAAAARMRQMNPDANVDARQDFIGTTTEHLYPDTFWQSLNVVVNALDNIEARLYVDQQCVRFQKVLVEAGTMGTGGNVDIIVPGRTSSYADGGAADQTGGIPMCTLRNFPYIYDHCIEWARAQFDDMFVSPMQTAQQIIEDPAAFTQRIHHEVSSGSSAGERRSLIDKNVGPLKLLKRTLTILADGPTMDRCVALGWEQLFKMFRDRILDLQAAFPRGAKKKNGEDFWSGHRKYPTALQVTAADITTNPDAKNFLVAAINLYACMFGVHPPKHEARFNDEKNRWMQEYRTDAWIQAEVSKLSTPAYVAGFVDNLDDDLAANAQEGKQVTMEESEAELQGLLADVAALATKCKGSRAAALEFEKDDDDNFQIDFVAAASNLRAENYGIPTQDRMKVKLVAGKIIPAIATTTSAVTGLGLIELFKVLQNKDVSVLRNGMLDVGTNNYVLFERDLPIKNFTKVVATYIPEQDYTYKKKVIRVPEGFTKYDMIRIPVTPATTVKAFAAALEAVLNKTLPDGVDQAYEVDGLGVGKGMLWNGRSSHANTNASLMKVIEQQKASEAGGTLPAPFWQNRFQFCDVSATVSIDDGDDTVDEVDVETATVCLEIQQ
Procedure Text: Leishmania donovani Ubiquitin Activating Enzyme (LdE1)
Assay type: functional
Design: scale not given: direction of the effect not stated beside the values
Experimental Parameters: 30 µM
Results with a measured potency or affinity are listed apart.
Kindly state Percent Effect for each of the entries shown.
Give bare numbers, in %.

Some solved cases for reference:
Name the recorded Percent Effect for COc1cccn(CC(=O)N(C)CCOc2cc(C)cc(C)c2)c1=O . 8.22

May I ask what Percent Effect has been recorded for CN1CC(=O)N(c2cccnc2)CC12CCN(C(=O)C1CCCCC1)C2 (stereo unspecified) ? 10.7

Consider the compound shown here: CCN(CC)c1ccc(C(=O)N(C)Cc2c(C)noc2C)cn1 What is its recorded Percent Effect? 10.5

Form field: reported Percent Effect of CS(=O)(=O)N1CCCCCC1C1CCN(c2ncccc2C#N)CC1 (stereo unspecified) -5.26

Fill blank: measured Percent Effect of the compound COCC(=O)N1CC[C@H]2C[C@H](C)O[C@@H]2C1 is ____. 13.3

Hi! Can you tell me Percent Effect for each of these compounds?
1. Cc1ccc(NC2CCN(C(=O)Cc3ccc(C#N)cc3)CC2)nn1
2. CCSc1cc(C(=O)NCCC(=O)Nc2ccccn2)ccn1
3. O=C(C1=CCCC1)N1C[C@@H]2COC[C@]2(COc2cccnc2)C1
4. CNC(=O)CS(=O)(=O)Cc1coc(-c2ccc(F)cc2)n1
5. COCCC(=O)N1CC[C@@H]2O[C@@H](C)C[C@H]2C1
6. CNC(=O)[C@@]12CCO[C@@H]1CCN(S(=O)(=O)c1cccc(C)c1)C2

[2.7, 2.74, 2.7, 5.41, 8, 10.8]

----------
Target Entity: Arginase-2, mitochondrial (Homo sapiens) (UniProt P78540)
Sequence (P78540 whole entry): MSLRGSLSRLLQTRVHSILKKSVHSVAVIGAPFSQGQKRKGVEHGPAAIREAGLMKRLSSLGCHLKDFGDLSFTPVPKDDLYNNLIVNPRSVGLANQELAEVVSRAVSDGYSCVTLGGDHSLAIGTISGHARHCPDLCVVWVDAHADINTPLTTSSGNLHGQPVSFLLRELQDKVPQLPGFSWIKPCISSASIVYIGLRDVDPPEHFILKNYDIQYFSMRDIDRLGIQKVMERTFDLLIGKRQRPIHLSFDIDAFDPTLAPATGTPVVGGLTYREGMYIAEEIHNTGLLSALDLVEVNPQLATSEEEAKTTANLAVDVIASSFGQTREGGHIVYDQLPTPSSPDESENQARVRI
Procedure Text: in vitro enzyme assay to detect the production of urea directly proportional to the activity of Arginase II; further: in the data most compounds retested in dose-response had high values
Format: functional
Parameters: scale not given: direction of the effect not stated beside the values
Experimental Parameters: 33.3 µM
Measurement Label: Percent Effect (%)
Answers are plain numbers, in %.

Worked cases, answers included:
Entry CC(C(=O)N1CCC(Nc2cccnn2)CC1)n1ccnc1 (stereo not given) : reported Percent Effect = ? -3.21

Suppose we examine the molecule COCc1ccccc1C(=O)N1CCCC(n2nc(C)cc2C)C1 (stereo not given) ; what Percent Effect value has been reported? -6.08

Which Percent Effect is listed for CNc1cc(CNC(=O)c2ccccc2)nc(-c2ccncc2)n1 ? -71.7

# per-item lookup of Percent Effect; items listed below
1. COc1ccc(C2OC(COc3ccccc3Br)=NN2C(C)=O)cc1 (stereo not given)
2. CN(Cc1ncc[nH]1)CC(c1cccs1)N1CCOCC1 (stereo not given)
3. CN(Cc1cn2c(n1)CN(c1ncc(F)cn1)CC2)Cc1ccco1
4. CC(C)NC(=O)N1CCC(n2ccc(C(F)(F)F)n2)CC1
5. Cc1ccc(C2CSCCN2C(=O)c2ccsc2)o1 (stereo not given)
6. COc1cccc2cc(CNC(=O)N3CCCC(O)C3)oc12 (stereo not given)

1. 3.23
2. -1.29
3. 4.89
4. -0.909
5. 4.22
6. -3.8

// for each molecule below, give its Percent Effect
1. Cc1ccc(NC(=O)NC(C)c2nc[nH]n2)cc1 (stereo not given)
2. COc1cccc(C(=O)NCC(O)c2cccs2)c1 (stereo not given)
3. NC(=O)C(CNC(=O)Cc1ccc(F)cc1)Cc1ccc(F)cc1 (stereo not given)

1. -0.248
2. 0
3. 0

Could you report Percent Effect for every entry in the following list?
1. CCCS(=O)(=O)Nc1ccc2c(c1)OCC(C)(C)C(=O)N2C
2. c1ccc(CCN2CCN(c3ccc4nncn4n3)CC2)nc1
3. COCCC(=O)Nc1ccnc(Oc2ccccc2)c1
4. COc1ccccc1OCC(=O)NCC(O)(c1ccccc1)C1CC1 (stereo not given)
5. c1ccc(-c2nc(CN3CCCC(Cn4cncn4)C3)co2)cc1 (stereo not given)
6. CC(=O)c1ccc(OCC(=O)NC(C)CCc2ccco2)cc1 (stereo not given)
7. O=C(Cc1ccc2c(c1)OCO2)N1CCCN(c2ccccc2)CC1
8. Cc1nnc(NCC2(c3ccc(Cl)cc3Cl)CCOCC2)c(C#N)c1C

-2.27
3.56
7.1
0.909
-5.81
1.91
-2
1.91

Give one value of Percent Effect per listed molecule.
1. CCCOc1ccc(NC(=O)NCCC(=O)N(C)C)cc1Cl
2. O=C(NCc1nnc2ccccn12)N1CCc2sccc2C1
3. c1ncn(CC2CCCN(Cc3nc(C4CC4)no3)C2)n1 (stereo not given)
4. CC(C)c1ncc2c(n1)CN(Cc1cccc(C#N)c1)CC2
5. COc1cccc2c1OCC(CNC(=O)CCCN1CCOCC1)C2 (stereo not given)

1. 0.909
2. 1.94
3. -4.56
4. 3.06
5. -0.248
